molecular target: Human HDAC7 (Homo sapiens, UniProt Q8WUI4); construct: (a.a. 518-end) with N-terminal GST tag; GST (N); host or cells: baculovirus expression system; test: HDAC7 biochemical assay, class IIa-specific substrate; details: read-out: HDAC Isoform IC50 (nM) 7
Sequence (Q8WUI4 518-952 limits assumed): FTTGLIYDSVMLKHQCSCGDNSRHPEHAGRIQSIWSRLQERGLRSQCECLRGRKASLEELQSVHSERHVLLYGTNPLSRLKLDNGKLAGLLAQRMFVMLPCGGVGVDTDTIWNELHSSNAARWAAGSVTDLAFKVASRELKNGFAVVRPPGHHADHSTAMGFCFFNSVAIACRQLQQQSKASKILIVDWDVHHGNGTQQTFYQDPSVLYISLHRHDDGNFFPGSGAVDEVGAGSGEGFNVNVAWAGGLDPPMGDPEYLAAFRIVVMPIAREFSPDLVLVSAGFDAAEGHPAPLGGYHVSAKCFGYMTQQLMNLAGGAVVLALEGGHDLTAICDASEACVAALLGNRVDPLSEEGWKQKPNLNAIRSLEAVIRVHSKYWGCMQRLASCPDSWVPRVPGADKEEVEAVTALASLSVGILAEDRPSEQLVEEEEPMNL
Catalogue of IC50 values

# count of solved cases: 7
> print(dat)
                                 mol.smiles                     target.or.test.system  measurement
1  Cc1nccc(N(Cc2ccc(-c3noc(C(F)(F)F)n3)s2)c2cnccn2)n1  Human HDAC7 (Homo sapiens, UniProt Q8WUI4)    ≤ 1000 nM
2  O=C(c1ccc(N(Cc2ccc(-c3noc(C(F)(F)F)n3)s2)c2cnccn2)nn1)N1CC[S+]([O-])CC1  Human HDAC7 (Homo sapiens, UniProt Q8WUI4)     ≤ 500 nM
3  Cc1nccnc1N(Cc1ccc(-c2noc(C(F)(F)F)n2)s1)c1cnccn1  Human HDAC7 (Homo sapiens, UniProt Q8WUI4)     ≤ 500 nM
4  O=C(c1ccc(N(Cc2ccc(-c3noc(C(F)(F)F)n3)s2)c2cnccn2)nn1)N1C[C@@H]2C[C@H]1CO2  Human HDAC7 (Homo sapiens, UniProt Q8WUI4)     ≤ 500 nM
5  FC(F)(F)c1cnnc(N(Cc2ccc(-c3noc(C(F)(F)F)n3)s2)c2ccc(N3CCCC3)nn2)c1  Human HDAC7 (Homo sapiens, UniProt Q8WUI4)   ≤ 10000 nM
6  FC(F)(F)c1nc(-c2ccc(CN(c3cnccn3)c3cnc(-c4ccco4)cn3)s2)no1  Human HDAC7 (Homo sapiens, UniProt Q8WUI4)   ≤ 10000 nM
7  FC(F)(F)c1cnnc(N(Cc2ccc(-c3noc(C(F)(F)F)n3)s2)c2ccncn2)c1  Human HDAC7 (Homo sapiens, UniProt Q8WUI4)   ≤ 10000 nM

Qu. Value lookup for IC50; key = FC(F)(F)c1nc(-c2ccc(CN(c3cnccn3)c3ccc(-c4ccccc4)nn3)s2)no1
Ans. ≤ 500 nM

====

molecular target: Human HDAC7 (Homo sapiens); construct: (a.a. 518-end) with N-terminal GST tag; GST (N); host or cells: baculovirus expression system; experiment: HDAC7 biochemical assay, class IIa-specific substrate; conditions: read-out: HDAC Isoform IC50 (nM) 7
recorded-metric: IC50

# count of solved cases: 3
> print(dat)
                                 mol.smiles  measurement
1  COC1CN(C(=O)c2ccc(N(Cc3ccc(-c4noc(C(F)(F)F)n4)s3)c3cnccn3)nn2)C1     ≤ 500 nM
2  O=C(c1cnnc(N(Cc2ccc(-c3noc(C(F)(F)F)n3)s2)c2cnccn2)c1)N1C[C@H]2C[C@@H]1CO2   ≤ 10000 nM
3  CS(=O)(=O)c1ncc(N(Cc2ccc(-c3noc(C(F)(F)F)n3)s2)c2cnccn2)cn1     ≤ 500 nM

Qu. Value lookup for IC50; key = O=C(c1cnnc(N(Cc2ccc(-c3noc(C(F)(F)F)n3)s2)c2cnccn2)c1)N1CC(F)(F)C1
Ans. ≤ 10000 nM

Qu. Value lookup for IC50; key = CS(=O)(=O)c1ccc(N(Cc2ccc(-c3noc(C(F)(F)F)n3)s2)c2cnccn2)nn1
Ans. ≤ 1000 nM

Qu. Value lookup for IC50; key = Cc1cncc(N(Cc2ccc(-c3noc(C(F)(F)F)n3)s2)c2cncc(C)n2)n1
Ans. ≤ 10000 nM
